- tested system: UniProtKB P48730
- Sequence (P48730 whole entry): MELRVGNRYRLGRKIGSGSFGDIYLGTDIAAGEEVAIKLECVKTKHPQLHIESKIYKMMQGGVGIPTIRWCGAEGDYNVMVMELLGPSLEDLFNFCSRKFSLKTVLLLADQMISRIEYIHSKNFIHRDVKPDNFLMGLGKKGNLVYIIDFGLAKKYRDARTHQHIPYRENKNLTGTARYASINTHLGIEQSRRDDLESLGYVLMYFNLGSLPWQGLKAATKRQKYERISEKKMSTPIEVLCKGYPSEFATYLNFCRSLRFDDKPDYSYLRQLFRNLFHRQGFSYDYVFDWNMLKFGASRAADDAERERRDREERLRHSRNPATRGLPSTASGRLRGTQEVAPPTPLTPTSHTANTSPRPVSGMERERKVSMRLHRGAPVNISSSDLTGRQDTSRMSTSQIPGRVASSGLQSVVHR
- experiment description: LanthaScreen Eu kinase binding assay, CK1δ
- condition context: Table 3; read-out: IC50 CK1δ
Class boundaries, taken from values of IC50, are as follows: low end (below 500 nM), middle (500 nM to below 900 nM), high end (900 nM or more)

molecule | group label
Cc1cccc(-c2nc(-c3ccc([S+](C)[O-])cc3)[nH]c2-c2ccncc2)c1 (stereo not shown) | middle
Cc1cccc(-c2nc(-c3ccccc3F)[nH]c2-c2ccncc2)c1 | low end
Fc1ccc(-c2nc(-c3c(F)cccc3F)[nH]c2C2=CCOCC2)cc1 | middle
Cc1cccc(-c2nc(-c3c(F)cccc3F)[nH]c2-c2ccncc2)c1 | low end
Fc1ccc(-c2nc(-c3ccc4ccccc4c3F)[nH]c2-c2ccncc2)cc1 | low end
Cc1cccc(-c2nc(-c3ccc(C(N)=O)cc3)[nH]c2-c2ccncc2)c1 | middle
Cc1cccc(-c2nc(-c3ccc(C(=O)O)cc3)[nH]c2-c2ccncc2)c1 | high end
Cc1cccc(-c2nc(-c3ccc(O)cc3)[nH]c2-c2ccncc2)c1 | high end
Oc1ccc(-c2nc(-c3ccc(F)cc3)c(-c3ccncc3)[nH]2)cc1 [SB202190, reference compound] | low end
Cc1cccc(-c2nc(-c3ccc([S+](C)[O-])cc3)[nH]c2C2=CCOCC2)c1 (stereo not shown) | high end
C[S+]([O-])c1ccc(-c2nc(-c3ccc(F)cc3)c(C3=CCOCC3)[nH]2)cc1 (stereo not shown) | high end
Fc1ccc(-c2nc(-c3ccccc3F)[nH]c2C2=CCOCC2)cc1 | high end
Fc1ccc(-c2nc(-c3ccccc3F)[nH]c2-c2ccncc2)cc1 | low end
Fc1ccc(-c2nc(-c3c(F)cccc3F)[nH]c2-c2ccncc2)cc1 | low end

From: patent US10865384B2
